Tested on: T-47D breast
Test protocol: NCI-60 one-dose screen, 48 h
Measurement context: 10 µM unless noted
This is part of a sample that, as a whole, favours compounds with a hit. Of some 83,000 tested, about 20% had one in any assay. Calls of active or inactive are those of the source. Rule for the calls: active = growth percent below 10; inactive = the rest.
Select the correct class. Options are true (1) (active), false (0) (inactive) and nothing else.

Asked: For "O=C(/C(Br)=C/c1ccccc1)c1ccccc1" , which call appears in the assay record?
Given back: true (1)

Asked: Next compound up: "CCCOC(=O)c1c(C)n(C)c2scc[n+]12"
Given back: false (0)

Asked: Next compound up: "BrCCCOc1ccc(Oc2ccc(OCCCBr)cc2)cc1"
Given back: false (0)

Asked: Next compound up: "C=C(C)C(C(=O)OCC)(C(=O)OCC)C(C)C"
Given back: false (0)

Asked: Next compound up: COc1ccc2cc(C(C)C(=O)Nc3ccc(S(=O)(=O)Nc4cc(C)on4)cc3)ccc2c1 (stereo unspecified)
Given back: false (0)

Asked: Next compound up: "COc1ccc(C2=C/C(=C\c3ccc(Cl)cc3)C(=O)NN2C(=S)NN)cc1"
Given back: false (0)
